// provenance: paper PMC4814829

Below, each entry is listed with its recorded log10(GI50).
Test system: Jurkat cells
Assay: Antiproliferative MTT assay
Format: cell-based
Conditions: Homo sapiens, 72 h, mean ± SEM
Transform log10 | Measure GI50 | Unit nM

Reference set (5 entries):
{"columns": ["compound", "tested.on", "measured"],
 "data": [
  ["c1ccc2c(c1)c(N1CCCCCC1)cc[n+]2Cc1ccc(OCCOc2ccc(C[n+]3ccc(N4CCCCCC4)c4ccccc43)cc2)cc1 [Compound 10j]", "Jurkat cells", 2.04],
  ["CN(c1ccc(Cl)cc1)c1cc[n+](Cc2ccc(OCCOc3ccc(C[n+]4ccc(N(C)c5ccc(Cl)cc5)cc4)cc3)cc2)cc1 [Compound 10c]", "Jurkat cells", 3.86],
  ["c1cc(OCCOc2ccc(C[n+]3ccc(N4CCCC4)cc3)cc2)ccc1C[n+]1ccc(N2CCCC2)cc1 [Compound 10b]", "Jurkat cells", 1.83],
  ["CN(C)c1cc[n+](Cc2ccc(OCCOc3ccc(C[n+]4ccc(N(C)C)cc4)cc3)cc2)cc1.[Br-].[Br-] [Compound 10a]", "Jurkat cells", 2.08],
  ["CN(c1ccc(Cl)cc1)c1cc[n+](Cc2ccc(OCCOc3ccc(C[n+]4ccc(N(C)c5ccc(Cl)cc5)c5ccc(Cl)cc54)cc3)cc2)c2cc(Cl)ccc12 [Compound 10i]", "Jurkat cells", 2.88]
]}

*Q* Supply log10(GI50) value. Item: CN(c1ccccc1)c1cc[n+](Cc2ccc(OCCOc3ccc(C[n+]4ccc(N(C)c5ccccc5)c5ccccc54)cc3)cc2)c2ccccc12 [Compound 10f]
*A* 1.78

*Q* Tell me measured log10(GI50) for CN(c1ccc(Cl)cc1)c1cc[n+](Cc2ccc(OCCOc3ccc(C[n+]4ccc(N(C)c5ccc(Cl)cc5)c5ccccc54)cc3)cc2)c2ccccc12.[Br-].[Br-] [Compound 10g] please.
*A* 1.99

*Q* Give the reported value of log10(GI50) for this record: CN(C)c1cc[n+](Cc2ccc(CCCCc3ccc(C[n+]4ccc(N(C)C)cc4)cc3)cc2)cc1 [MN58b, reference compound]
*A* 2.54

*Q* Give log10(GI50) for Clc1ccc2c(N3CCCCCC3)cc[n+](Cc3ccc(OCCOc4ccc(C[n+]5ccc(N6CCCCCC6)c6ccc(Cl)cc65)cc4)cc3)c2c1 [Compound 10k]
*A* 1.86

###

# Kd per entry for human ChoKα1 (Homo sapiens)
Answer format: numeric, µM implied, no suffix.

{"columns": ["molecule", "tested.on", "measured"],
 "data": [
  ["CN(C)c1cc[n+](Cc2ccc(CCCCc3ccc(C[n+]4ccc(N(C)c5ccc(Cl)cc5)cc4)cc3)cc2)cc1 [Compound 4, reference compound]", "human ChoKα1 (Homo sapiens)", 0.11],
  ["CN(c1ccc(Cl)cc1)c1cc[n+](Cc2ccc(OCCOc3ccc(C[n+]4ccc(N(C)c5ccc(Cl)cc5)c5ccccc54)cc3)cc2)c2ccccc12.[Br-].[Br-] [Compound 10g]", "human ChoKα1 (Homo sapiens)", 0.517],
  ["Clc1ccc2c(N3CCCC3)cc[n+](Cc3ccc(OCCOc4ccc(C[n+]5ccc(N6CCCC6)c6ccc(Cl)cc65)cc4)cc3)c2c1.[Br-].[Br-] [Compound 10l]", "human ChoKα1 (Homo sapiens)", 0.357]
]}

*Q* Hello, please tell me recorded Kd for this one: Clc1ccc2c(N3CCCCCC3)cc[n+](Cc3ccc(OCCOc4ccc(C[n+]5ccc(N6CCCCCC6)c6ccc(Cl)cc65)cc4)cc3)c2c1 [Compound 10k]
*A* 0.241

*Q* Identify the reported Kd for the following entry. C[N+]1(C)CCOC(O)(c2ccc(-c3ccc(C4(O)C[N+](C)(C)CCO4)cc3)cc2)C1 (stereo not shown) [HC-3, reference compound]
*A* 0.18

*Q* For the molecule CN(C)c1cc[n+](Cc2ccc(OCCOc3ccc(C[n+]4ccc(N(C)C)cc4)cc3)cc2)cc1.[Br-].[Br-] [Compound 10a] , give its measured Kd value.
*A* 0.7

*Q* Recall and state the measured Kd for CN(c1ccccc1)c1cc[n+](Cc2ccc(OCCOc3ccc(C[n+]4ccc(N(C)c5ccccc5)c5ccccc54)cc3)cc2)c2ccccc12 [Compound 10f] .
*A* 0.295

###

Tested on: PC-3 cells
Experiment: Antiproliferative MTT assay
Format: cell-based
Details: Homo sapiens, 72 h, mean ± SEM
measured.parameter: log10(GI50) (log10 of the value in µM)
# values: log10(GI50), units µM

Examples with answers:
{"columns": ["molecule", "tested.on", "measured"],
 "data": [
  ["CN(c1ccc(Cl)cc1)c1cc[n+](Cc2ccc(OCCOc3ccc(C[n+]4ccc(N(C)c5ccc(Cl)cc5)c5ccc(Cl)cc54)cc3)cc2)c2cc(Cl)ccc12 [Compound 10i]", "PC-3 cells", -0.14],
  ["[Br-].[Br-].c1cc(OCCOc2ccc(C[N+]34CCC(CC3)CC4)cc2)ccc1C[N+]12CCC(CC1)CC2 [Compound 10d]", "PC-3 cells", 1.97],
  ["c1cc(OCCOc2ccc(C[n+]3ccc(N4CCCC4)cc3)cc2)ccc1C[n+]1ccc(N2CCCC2)cc1 [Compound 10b]", "PC-3 cells", 0.65],
  ["CN(c1ccccc1)c1cc[n+](Cc2ccc(OCCOc3ccc(C[n+]4ccc(N(C)c5ccccc5)c5ccccc54)cc3)cc2)c2ccccc12 [Compound 10f]", "PC-3 cells", -0.33],
  ["CN(c1ccc(Cl)cc1)c1cc[n+](Cc2ccc(OCCOc3ccc(C[n+]4ccc(N(C)c5ccc(Cl)cc5)cc4)cc3)cc2)cc1 [Compound 10c]", "PC-3 cells", 0.49]
]}

*Q* Give reported log10(GI50) for OC1C[N+]2(Cc3ccc(OCCOc4ccc(C[N+]56CCC(CC5)C(O)C6)cc4)cc3)CCC1CC2.[Br-].[Br-] (stereo not drawn) [Compound 10e] (PC-3 cells)
*A* 1.68

###

Tested on: HL-60 cells
Assay: Antiproliferative MTT assay
Format: cell-based
Details: Homo sapiens, 72 h, mean ± SEM
We begin with a simple list: items and their reported log10 GI50.
Please interpret these as log10 of GI50 where GI50 is in nM.

{"columns": ["compound", "log10 GI50"],
 "data": [
  ["c1ccc2c(c1)c(N1CCCCCC1)cc[n+]2Cc1ccc(OCCOc2ccc(C[n+]3ccc(N4CCCCCC4)c4ccccc43)cc2)cc1 [Compound 10j]", 2.62]
]}

*Q* Given [Br-].[Br-].c1cc(OCCOc2ccc(C[N+]34CCC(CC3)CC4)cc2)ccc1C[N+]12CCC(CC1)CC2 [Compound 10d] , respond with its log10 GI50.
*A* 4.92

*Q* Please report log10 GI50 for the following compound: Clc1ccc2c(N3CCCC3)cc[n+](Cc3ccc(OCCOc4ccc(C[n+]5ccc(N6CCCC6)c6ccc(Cl)cc65)cc4)cc3)c2c1.[Br-].[Br-] [Compound 10l]
*A* 2.20

*Q* Could you please provide reported log10 GI50 for CN(c1ccc(Cl)cc1)c1cc[n+](Cc2ccc(-c3ccc(C[n+]4ccc(N(C)c5ccc(Cl)cc5)c5ccccc54)cc3)cc2)c2ccccc12 [RSM932A, reference compound] ? Thanks!
*A* 2.97

*Q* Give the reported log10 GI50 for this compound. CN(c1ccccc1)c1cc[n+](Cc2ccc(OCCOc3ccc(C[n+]4ccc(N(C)c5ccccc5)c5ccc(Cl)cc54)cc3)cc2)c2cc(Cl)ccc12 [Compound 10h]
*A* 2.96

*Q* Give reported log10 GI50 value for CN(c1ccc(Cl)cc1)c1cc[n+](Cc2ccc(OCCOc3ccc(C[n+]4ccc(N(C)c5ccc(Cl)cc5)cc4)cc3)cc2)cc1 [Compound 10c]
*A* 3.32

*Q* Using the record for CN(c1ccc(Cl)cc1)c1cc[n+](Cc2ccc(OCCOc3ccc(C[n+]4ccc(N(C)c5ccc(Cl)cc5)c5ccccc54)cc3)cc2)c2ccccc12.[Br-].[Br-] [Compound 10g] , state its measured log10 GI50.
*A* 2.85

*Q* Give reported log10 GI50 value for c1cc(OCCOc2ccc(C[n+]3ccc(N4CCCC4)cc3)cc2)ccc1C[n+]1ccc(N2CCCC2)cc1 [Compound 10b]
*A* 1.62

*Q* Find the measured log10 GI50 of CN(C)c1cc[n+](Cc2ccc(CCCCc3ccc(C[n+]4ccc(N(C)C)cc4)cc3)cc2)cc1 [MN58b, reference compound] and report it.
*A* 2.51

*Q* Return reported log10 GI50. Input compound: CN(c1ccccc1)c1cc[n+](Cc2ccc(OCCOc3ccc(C[n+]4ccc(N(C)c5ccccc5)c5ccccc54)cc3)cc2)c2ccccc12 [Compound 10f]
*A* 1.80

###

compounds and their reported GI50
Tested on: HL-60 cells
Assay: Antiproliferative MTT assay
Type: cell-based
Details: Homo sapiens, 72 h, mean ± SEM
Numeric only. Scale: nM

{"columns": ["compound", "measured.parameter", "measured"],
 "data": [
  ["Clc1ccc2c(N3CCCCCC3)cc[n+](Cc3ccc(OCCOc4ccc(C[n+]5ccc(N6CCCCCC6)c6ccc(Cl)cc65)cc4)cc3)c2c1 [Compound 10k]", "GI50", 180]
]}

*Q* Enter GI50 (test system HL-60 cells) for CN(c1ccc(Cl)cc1)c1cc[n+](Cc2ccc(OCCOc3ccc(C[n+]4ccc(N(C)c5ccc(Cl)cc5)c5ccc(Cl)cc54)cc3)cc2)c2cc(Cl)ccc12 [Compound 10i]
*A* 870

*Q* Give reported GI50 for CN(C)c1cc[n+](Cc2ccc(OCCOc3ccc(C[n+]4ccc(N(C)C)cc4)cc3)cc2)cc1.[Br-].[Br-] [Compound 10a] (HL-60 cells)
*A* 100
